Please provide measured inhibition at 10 µM for the entries that follow.
target: rat PTP1 (Rattus norvegicus); construct: a C-terminal truncation of rat PTP1 (amino acid residues 1-322); GST (N, cleaved yes); made in house; host or cells: E. coli strain TG-1 (pGEX-2T); assay: PTP1 assay, pNPP hydrolysis (rate of change in A405); assay type: biochemical; settings: inhibition of pNPP-hydrolysis; compound concentration 10 μM; read-out: % Inhibition
Sequence (P20417 1-322): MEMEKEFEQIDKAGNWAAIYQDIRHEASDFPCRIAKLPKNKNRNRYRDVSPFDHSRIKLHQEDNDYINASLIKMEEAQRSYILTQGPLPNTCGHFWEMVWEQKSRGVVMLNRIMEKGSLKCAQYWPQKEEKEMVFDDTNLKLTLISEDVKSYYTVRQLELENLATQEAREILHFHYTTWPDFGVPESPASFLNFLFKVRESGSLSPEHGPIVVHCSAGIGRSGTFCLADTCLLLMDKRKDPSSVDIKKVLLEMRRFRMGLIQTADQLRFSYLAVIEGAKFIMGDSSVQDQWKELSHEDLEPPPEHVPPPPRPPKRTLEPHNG
Numbers only, in %.

Check out these entries, answers already filled in.
>>> measured("CC(C)(C)OC(=O)N[C@@H](Cc1ccccc1)C(=O)N[C@H](Cc1ccc(OCC(=O)O)c(C(=O)O)c1)C(=O)NCCCN1CCCC1=O")
76
>>> measured("CC(C)OCCCNC(=O)[C@H](Cc1ccc(OCC(=O)O)c(C(=O)O)c1)NC(=O)[C@H](Cc1ccccc1)NC(=O)OC(C)(C)C")
83

Give one value of inhibition at 10 µM per listed compound.
1. CC(C)(C)OC(=O)N[C@@H](Cc1ccccc1)C(=O)N[C@@H](Cc1ccc(OCC(=O)O)c(C(=O)O)c1)C(=O)NCc1cccnc1
2. O=C(O)COc1ccc(C[C@H](NS(=O)(=O)/C=C/c2ccccc2)C(=O)NCCCCc2ccc(Cl)cc2)cc1C(=O)O
3. O=C(O)COc1ccc(C[C@H](NC(=O)c2ccoc2)C(=O)NCCCCc2ccccc2)cc1C(=O)O
4. CC(C)(C)OC(=O)N[C@@H](Cc1ccccc1)C(=O)N[C@@H](Cc1ccc(OCC(=O)O)c(C(=O)O)c1)C(=O)NCCCO

Result:
1: 67; 2: 69; 3: 31; 4: 73

Give one value of inhibition at 10 µM per listed compound.
1. CC(C)(C)OC(=O)N[C@@H](Cc1ccccc1)C(=O)N[C@H](CO)Cc1ccc(OCC(=O)O)c(C(=O)O)c1
2. O=C(O)COc1ccc(C[C@H](NC(=O)c2ccccc2)C(=O)NCCCCc2ccc(Cl)cc2)cc1C(=O)O
3. CC(C)(C)OC(=O)N[C@@H](Cc1ccccc1)C(=O)N[C@@H](Cc1ccc(OCC(=O)O)c(C(=O)O)c1)C(=O)NCCCCc1ccccc1
4. CCCCCNC(=O)[C@H](Cc1ccc(OCC(=O)O)c(C(=O)O)c1)NC(=O)c1cnc(Cl)c(Cl)c1

Result:
1: 31; 2: 55; 3: 93; 4: 72
